Recorded IC50 by entry
# System: HeLa
# TEST PROTOCOL: Cytotoxicity against human HeLa cells incubated from day 2 to day 4 by CCK8 assay
# Assay type: functional, cell-based

These recorded examples may help you get a feel for the data.
SMILES ENTRY	READOUT LABEL	RESULT
Oc1ccccc1-c1cc(-c2cccs2)c2c(n1)-c1ccccc1C2	IC50	> 50 µM
c1ccc(-c2cc(-c3ccsc3)c3c(n2)-c2ccccc2C3)cc1	IC50	29.8 µM
Oc1ccc(-c2cc(-c3cccnc3)c3c(n2)-c2ccccc2C3)cc1	IC50	> 50 µM
Oc1cccc(-c2cc(-c3ccco3)c3c(n2)-c2ccccc2C3)c1	IC50	3.66 µM
Oc1ccccc1-c1cc(-c2ccco2)c2c(n1)-c1ccccc1C2	IC50	> 50 µM

According to the records, this compound "Oc1cccc(-c2cc(-c3cccnc3)c3c(n2)-c2ccccc2C3)c1" displays IC50 of 4.67 µM

IC50 for "Oc1cccc(-c2cc(-c3cccs3)c3c(n2)-c2ccccc2C3)c1" is 1.47 µM
